Tested on: HT-22
test_method_notes: Cytotoxicity against mouse HT22 cells assessed as decrease in cell viability at 10 uM after 24 hrs by MTT assay
Assay type: cell-based
measurement_setup: ht-22, 24 h

[
  {
    "molecule": "O=C(NCc1c(F)cccc1F)c1sccc1OCc1ccc(Cl)cc1Cl",
    "tested_target": "HT-22",
    "Activity": "Toxic"
  },
  {
    "molecule": "N#Cc1ccc(-c2cncc(OCc3ccc(Cl)cc3Cl)c2)s1",
    "tested_target": "HT-22",
    "Activity": "Non-Toxic"
  },
  {
    "molecule": "C[C@@H](Oc1cncc(-c2cnc(N)nc2)c1)c1c(Cl)ccc(F)c1Cl",
    "tested_target": "HT-22",
    "Activity": "Non-Toxic"
  },
  {
    "molecule": "C[C@@H](Oc1cc(-c2cnn(C3CCNCC3)c2)cnc1N)c1c(Cl)ccc(F)c1Cl [CRIZOTINIB]",
    "tested_target": "HT-22",
    "Activity": "Toxic"
  }
]
